Reported Kd is given for each of the following compounds.
- targetOrTestSystem: recombinant human galectin-1 (Homo sapiens)
- Sequence (P09382 whole entry): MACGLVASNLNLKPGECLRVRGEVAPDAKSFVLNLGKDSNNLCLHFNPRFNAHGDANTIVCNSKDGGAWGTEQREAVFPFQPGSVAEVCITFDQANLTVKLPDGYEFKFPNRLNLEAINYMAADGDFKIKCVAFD
- assayProtocol: SPR (BIAcore) equilibrium binding to immobilized galectin-1
- studyConditions: SPR steady state affinity fit, Table I; read-out: Galectin-1 binding, KD
- Experimental: Galectin binding affinity measurements were performed in a surface plasmon resonance (SPR) assay using […] instrument (BIAcore, Inc, Uppsala, Sweden). PBS with 5 mM β-mercaptoethanol was used as running buffer for all experiments. Purified recombinant human galectin-1 and galectin-4 were immobilized at different surface densities on CM5 carboxymethyldextran chip (BIAcore) in the presence of 150 mM lactose, using standard amine coupling chemistry. […]
Give just the numeric value; µM need not be written.

                                   compound                        targetortestsystem  unitslabel  testresult
0  O=C(O)CCCNCC(=O)C(O)C(OC1OC(CO)C(O)C(O)C1O)C(O)CO [Lactulose-L-GABA]  recombinant human galectin-1 (Homo sapiens)          µM         106
1  O=C(CN1CCCC1C(=O)O)C(O)C(OC1OC(CO)C(O)C(O)C1O)C(O)CO [Lactulose-L-proline]  recombinant human galectin-1 (Homo sapiens)          µM          70
2  O=C(O)C(Cc1c[nH]cn1)NCC(=O)C(O)C(OC1OC(CO)C(O)C(O)C1O)C(O)CO [Lactulose-L-histidine]  recombinant human galectin-1 (Homo sapiens)          µM         191

Next compound, please.
[ask] Return reported Kd; argument: CC(O)C(NCC(=O)C(O)C(OC1OC(CO)C(O)C(O)C1O)C(O)CO)C(=O)O [Lactulose-L-threonine]
[reply] 376
